GI50: recorded values
# Test system: T-47D breast
# ASSAY_COMMENT: NCI tumour cell line growth inhibition, 48 h
MEASUREMENT_TYPE: GI50

INSERT INTO assay_data (compound, assay_value) VALUES
  ('CCCCCCCCCCCCC(O)c1ccco1 (centres undefined)', '35.5 µM'),
  ('CS(=O)(=O)c1ccc(Nc2nc(N[C@H]3CCCC[C@H]3N)nc3cc[nH]c(=O)c23)cc1', '0.891 µM'),
  ('CCCOC(=O)c1c(C)n(C)c2scc[n+]12', '38.5 µM'),
  ('CC/C(Cc1ccccc1)=C(\c1ccc(OCCN2CCCC2)cc1)c1ccc(OC(=O)NCc2ccccc2)cc1', '1.41 µM');

* * *

TGI: recorded values
# Tested on: SNB-75 CNS
# ASSAY_COMMENT: NCI tumour cell line growth inhibition, 48 h
MEASUREMENT_TYPE: TGI

INSERT INTO results (compound, tested_target, measurement_type, assay_value) VALUES
  ('Cc1ccc(C)c(N2C(=O)C(=O)C(c3nc4ccccc4o3)C(=O)C2=O)c1', 'SNB-75 CNS', 'TGI', '> 100 µM'),
  ('Cc1c2cccc-2ccc2c3ccccc3n(C(=O)c3ccc(Cl)cc3)c12', 'SNB-75 CNS', 'TGI', '> 100 µM'),
  ('O=C(O)/C(Cc1ccnc2ccccc12)=N\O', 'SNB-75 CNS', 'TGI', '> 100 µM'),
  ('CS(=O)(=O)Nc1cccc(-c2ccc3ncnc(Nc4ccc(F)c(Cl)c4)c3c2)c1', 'SNB-75 CNS', 'TGI', '> 30.2 µM'),
  ('Nc1c(S(=O)(=O)O)cc(S(=O)(=O)O)c2ccc(N=Nc3ccc(/C=C/c4ccc(N=Nc5ccc6c(S(=O)(=O)O)cc(S(=O)(=O)O)c(N)c6c5O)cc4S(=O)(=O)O)c(S(=O)(=O)O)c3)c(O)c12', 'SNB-75 CNS', 'TGI', '> 100 µM'),
  ('COc1ccc(-c2nc(-c3nc4ccc(C)cc4[nH]3)cc3c2[nH]c2ccccc23)cc1', 'SNB-75 CNS', 'TGI', '> 100 µM'),
  ('COCCOc1cc(C)cc(/C=C(C)/C=C/C2=C(C)CCCC2(C)C)n1', 'SNB-75 CNS', 'TGI', '> 100 µM'),
  ('COC1=CC(C2c3cc4c(cc3[C@@H](Nc3ccc(F)cc3)C3COC(=O)[C@H]23)OCO4)=CC(=O)C1=O (stereo partly specified)', 'SNB-75 CNS', 'TGI', '> 45.1 µM'),
  ('COc1ccc(C)cc(=O)c1O', 'SNB-75 CNS', 'TGI', '> 100 µM'),
  ('Cc1ccc2nc(NC(=O)C(=O)C(C#N)c3ccc(Cl)cc3)sc2c1 (stereo unspecified)', 'SNB-75 CNS', 'TGI', '> 50 µM'),
  ('CCN(CC)C(=O)CCN1CC1', 'SNB-75 CNS', 'TGI', '> 10 µM');

* * *

# Tested on: NCI/ADR-RES ovarian
# ASSAY_COMMENT: NCI tumour cell line growth inhibition, 48 h
TGI: recorded values
MEASUREMENT_TYPE: TGI

INSERT INTO results (compound, assay_value) VALUES
  ('O=c1[nH]nc(Cc2ccc(Cl)cc2)n1/N=C/c1ccc([N+](=O)[O-])o1', '> 35.5 µM'),
  ('COc1cc(/C=C/c2ccc(O)c(OC)c2)cc(OC)c1', '> 100 µM'),
  ('CCN(CC)C(=O)CCN1CC1', '> 10 µM'),
  ('CC1CCC2(OC1)OC1C(O)C3C4CCC5CC(OC6OC(CO)C(OC7OC(CO)C(O)C(OC8OCC(O)C(O)C8O)C7OC7OC(CO)C(O)C(OC8OC(CO)C(O)C(O)C8O)C7O)C(O)C6O)C(O)CC5(C)C4CCC3(C)C1C2C (stereo not drawn)', '13.6 µM'),
  ('O=C(NC(=O)c1c(Cl)nc2sccn12)Nc1ccc(Cl)cc1', '> 100 µM'),
  ('C#CCOC(=O)c1ccc(OC(C)=O)cc1', '> 100 µM'),
  ('COc1ccccc1S(=O)(=O)Nc1ccc2c3c(cc(CCC(=O)NCCCCNc4cccc5c4C(=O)N(C4CCC(=O)NC4=O)C5=O)cc13)C(=O)N2C (stereo not drawn)', '> 100 µM'),
  ('C1CN(c2nnc(N3CCC3)nn2)C1', '> 100 µM'),
  ('O=C1NC(N2CCOCC2)=N/C1=C\c1ccc(O)cc1', '> 100 µM'),
  ('CCOC(=O)C(Cc1ccc(N(CCCl)CCCl)cc1)NC(=O)C(Cc1ccccc1)NC=O (stereo not drawn)', '0.656 µM'),
  ('COC(=O)Cn1cnc2c(Cl)nc(Nc3ccccc3)nc21', '> 100 µM'),
  ('O=C(OCc1ccccc1)N1CCNCCNCCN(C(=O)OCc2ccccc2)CCNCC1', '> 100 µM'),
  ('C#CC1=CC(=O)C(OC)=CC1=O', '> 100 µM'),
  ('COC(=O)c1c(-c2cccs2)oc(-c2cccs2)c1C(=O)OC', '> 94.5 µM'),
  ('O=C(NCC(F)(F)F)Nc1cccc(-c2cnc3cc(-c4ccc(F)cc4)ccn23)c1', '> 68 µM'),
  ('NC(=O)CN1C=CCC(C(N)=O)=C1', '> 100 µM'),
  ('Oc1ccc(-c2nc3ccccc3s2)cc1', '> 100 µM'),
  ('CCNc1cc2c3c(c1)CCN3CCC2', '> 10 µM'),
  ('COc1ccccc1NC(=O)CC(=O)NN', '> 100 µM'),
  ('NC(=S)NC/C=C/Cl', '> 100 µM'),
  ('Cc1cc(-c2nc3cccc(O)c3s2)ccc1N', '55.9 µM'),
  ('O=[Se](O)O', '> 54.9 µM'),
  ('COc1cc(N(CCC#N)CCC#N)ccc1/C=N\NC(=O)c1ccc(C)cc1', '> 100 µM'),
  ('COc1ccc(C(=O)/C=C/c2cc(-c3cc(OC)c(OC)c(OC)c3)n[nH]2)cc1', '9.85 µM'),
  ('CC(=O)N1CCN(CCNC(=O)n2cc(-c3ccncc3)c(-c3cc(O)cc(Cl)c3)n2)CC1', '> 100 µM'),
  ('S=C1Cc2c(-c3ccc(Br)cc3)cc(-c3ccccc3)nc2-c2ccccc2N1', '4.43 µM'),
  ('CCCCCCCCOc1ccc(/C=C/C2=[N+](CCO)CCO2)cc1', '29.4 µM'),
  ('CC(C)CCOC(=O)NC(Nc1ccc(F)cc1)(C(F)(F)F)C(F)(F)F', '> 100 µM');

* * *

TGI: recorded values
# System: MALME-3M melanoma
# ASSAY_COMMENT: NCI tumour cell line growth inhibition, 48 h
MEASUREMENT_TYPE: TGI (µM)

INSERT INTO assay_data (compound, qualifier_symbol, assay_value) VALUES
  ('N#CC(C(=O)CCCC(=O)Nc1ccc(Cl)cc1Cl)c1ccccc1 (stereo unspecified)', '>', 100),
  ('O=C1/C(=C/c2ccc(F)cc2)CN(C(=O)CCN2CCC(=NO)CC2)C/C1=C\c1ccc(F)cc1', '=', 4.89),
  ('O=[N+]([O-])/C(C(Cl)=C(Cl)Cl)=C(/Nc1cccc2cccnc12)n1nnc2ccccc21', '=', 19.7),
  ('Cc1nc(-c2cc3ccccc3oc2=O)cs1', '>', 100),
  ('COc1cc(OC)cc(C2C3=C(COC3=O)Nc3cc(OC)ccc32)c1 (stereo unspecified)', '>', 100),
  ('CSc1nc2nc3c(nc2c(=O)n1C)C(=O)c1ccccc1C3=O', '=', 0.166);

* * *

# Test system: UACC-62 melanoma
# ASSAY_COMMENT: NCI tumour cell line growth inhibition, 48 h
TGI: recorded values
MEASUREMENT_TYPE: TGI

INSERT INTO results (molecule, measurement_type, assay_value) VALUES
  ('CCCCCC(=O)Nc1nc2nc[nH]c2c(=O)[nH]1', 'TGI', '> 100 µM'),
  ('C[C@H](C1CC2(C)OC2(C)C(=O)O1)[C@H]1CC[C@H]2[C@@H]3[C@@H]4O[C@@H]4[C@@]4(O)CC=CC(=O)[C@]4(C)[C@H]3CC[C@]12C (some centres undefined)', 'TGI', '> 50 µM'),
  ('CCN(CC)C(=O)CCN1CC1', 'TGI', '> 10 µM'),
  ('C=C1C(O)C2CC(C)(CO)C(=O)C2=C(CC(C)C)C12CC2 (centres undefined)', 'TGI', '> 100 µM');

* * *

# Tested on: HCT-15 colon
# ASSAY_COMMENT: NCI tumour cell line growth inhibition, 48 h
TGI: recorded values
MEASUREMENT_TYPE: TGI

INSERT INTO results (compound, assay_value) VALUES
  ('O=C(Nc1ccccc1I(=O)=O)C1CCCCC1', '> 100 µM'),
  ('COC1=CC(C2c3cc4c(cc3[C@@H](Nc3ccc(F)cc3)C3COC(=O)[C@H]23)OCO4)=CC(=O)C1=O (some centres undefined)', '26.9 µM'),
  ('CC(C)N(Cc1ccc(CN(C(=O)CCl)C(C)C)cc1)C(=O)CCl', '3.64 µM'),
  ('Cc1cc(N(CCOS(C)(=O)=O)CCOS(C)(=O)=O)ccc1C(=O)O', '> 100 µM'),
  ('COc1cc(N(CCC#N)CCC#N)ccc1/C=N\NC(=O)c1ccc(C)cc1', '> 100 µM'),
  ('O=C(Nc1nn[nH]n1)c1nc(-c2ccccc2)cc(=O)[nH]1', '> 100 µM'),
  ('O=C1NC(Cc2ccc(O)cc2)C(=O)NC1Cc1ccc(O)cc1 (centres undefined)', '> 100 µM'),
  ('CC(C)c1cccc(C(C)C)c1N1C(=O)C(=O)C(c2nc3ccccc3o2)C(=O)C1=O', '> 100 µM'),
  ('Cc1cc(-c2nc3cccc(O)c3s2)ccc1N', '> 100 µM'),
  ('CCCCC#Cc1c(I)n(C)c(=O)[nH]c1=O', '2.87 µM'),
  ('C#CC1=CC(=O)C(OC)=CC1=O', '32.3 µM'),
  ('CCOc1cc2c(cc1O)C(O)C[C@@H]1[C@@H]2CC[C@]2(C)[C@@H](O)CC[C@@H]12 (some centres undefined)', '> 100 µM'),
  ('CCCCCCCC1(c2ccc(N)cc2)CCC(=O)NC1=O (centres undefined)', '> 100 µM'),
  ('CCN(CC)C(=O)CCN1CC1', '> 10 µM');

Data origin: PubChem BioAssay (NCI)
